Run Description: Metabolic stability in mouse liver microsome assessed as parent compound remaining at 1 uM measured after 1 hr in presence of NADPH regenerating system by UPLC-MS/MS analysis
Type: ADME
Experimental Context: liver microsomes, read-out: Stability
Here the recorded remaining at 1 h, 1 µM is given for each entry.
Dear colleague, please return just the value in %, with no unit written.

remaining at 1 h, 1 µM reported for this compound `CCc1ncc(-c2cc(C)no2)c(C2CCN(CC(=O)N3CCCOCC3)CC2)n1` : 69

***
remaining at 1 h, 1 µM reported for this compound `CC(C)(C)Oc1cc(CCC(C)(C)N2Cc3ccc(S(C)(=O)=O)cc3C2)ccc1O` : 62

remaining at 1 h, 1 µM reported for this compound `CCc1ncc(-c2cc(C)no2)c(C2CCN(CC(=O)N3CCCCC3)CC2)n1` : 59

remaining at 1 h, 1 µM reported for this compound `Cc1cc(-c2cnc(C3CC3)nc2C2CCN(CC(=O)N3CCOCC3)CC2)on1` : 97
